Percent Effect values for the molecules below.
Target: Tyrosyl-tRNA synthetase, putative (Trypanosoma cruzi (strain CL Brener))
Sequence (whole entry): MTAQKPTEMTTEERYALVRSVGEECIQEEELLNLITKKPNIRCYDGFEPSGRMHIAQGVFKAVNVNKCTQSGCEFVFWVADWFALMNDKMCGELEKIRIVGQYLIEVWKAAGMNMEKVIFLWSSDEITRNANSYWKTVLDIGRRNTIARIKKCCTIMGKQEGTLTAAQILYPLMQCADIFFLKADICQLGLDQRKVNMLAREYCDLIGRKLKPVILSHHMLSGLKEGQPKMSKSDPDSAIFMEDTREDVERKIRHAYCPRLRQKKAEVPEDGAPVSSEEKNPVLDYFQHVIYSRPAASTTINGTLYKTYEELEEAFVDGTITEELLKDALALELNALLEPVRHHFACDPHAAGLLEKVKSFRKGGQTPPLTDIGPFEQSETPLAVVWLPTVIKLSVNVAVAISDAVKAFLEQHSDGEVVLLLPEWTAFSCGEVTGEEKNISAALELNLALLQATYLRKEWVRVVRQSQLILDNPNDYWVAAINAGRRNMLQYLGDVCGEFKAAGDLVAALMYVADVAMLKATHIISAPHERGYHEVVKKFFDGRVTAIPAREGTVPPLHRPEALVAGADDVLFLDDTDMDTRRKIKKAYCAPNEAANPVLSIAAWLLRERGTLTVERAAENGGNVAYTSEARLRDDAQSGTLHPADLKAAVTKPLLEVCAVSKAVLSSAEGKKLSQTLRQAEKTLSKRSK
Experiment: Trypanosoma cruzi tyrosyl tRNA synthetase (TcYRS) _High Tyrosine SOP
Type: functional
Design: scale not given: in the data most compounds retested in dose-response had high values
Conditions: 30 µM

{"molecule": "Cc1nn(C)cc1CN(C)Cc1cc2c(cc1OC(F)F)OCO2", "Percent Effect [%]": -1.07}
{"molecule": "O=C(NCc1ccoc1)NC1CCCN(c2ncccn2)C1 (configuration not stated)", "Percent Effect [%]": 3.19}
{"molecule": "O=C1CC2(CCN(Cc3ccoc3)C2)CN1c1ccc2c(c1)OCO2 (configuration not stated)", "Percent Effect [%]": 7.89}
{"molecule": "CC(C)N1CCC(Cc2cc(-c3ccccc3C(=O)O)ncn2)CC1", "Percent Effect [%]": 4.3}
{"molecule": "COCCN1C(=O)C[C@@H]2[C@H]1CCN2C(=O)COc1ccccc1", "Percent Effect [%]": 2.63}
{"molecule": "Cc1cc(NCc2cccnc2)n2nc(C)cc2n1", "Percent Effect [%]": 4.79}
{"molecule": "Cc1ccc(CN2CCC3(CC(C(=O)NCC4CC4)=NO3)C2)cc1C (configuration not stated)", "Percent Effect [%]": 0}
{"molecule": "CC(C)c1nn(C)c(N(C)C)c1CNCCC(=O)N(C)C", "Percent Effect [%]": -0.493}
{"molecule": "c1cncc(N2CCOCC3(CCCN(c4nncs4)C3)C2)c1 (configuration not stated)", "Percent Effect [%]": 2.63}
{"molecule": "CS(=O)(=O)NC[C@]12COC[C@H]1CN(C(=O)c1ccoc1)C2", "Percent Effect [%]": 5.29}
{"molecule": "Cc1nn(C)c(C)c1C1CCCN1Cc1cccc(C(N)=O)c1 (configuration not stated)", "Percent Effect [%]": 2.46}
{"molecule": "Cc1cnn(CC(C)NCc2ccc(-n3cccn3)cc2)c1 (configuration not stated)", "Percent Effect [%]": 0}
